target_system: AMPA receptors
assay_procedure: AMPA receptor binding (Honore et al.)
cond: Table 1
property_name: IC50
The answer consists of two parts: a number and, after it, its unit.

compound	property_name	reading
Cc1c([N+](=O)[O-])cc2[nH]c(=O)c(=O)n3c2c1CN(C)C(=O)C3c1ccccc1 (centres unmarked)	IC50	4500 nM

Attention now turns to another entry.
Problem: What reported IC50 corresponds to Cc1c([N+](=O)[O-])cc2[nH]c(=O)c(=O)n3c2c1CN(C)C(=O)C3 on AMPA receptors?
Result: 850 nM
